UniProtKB P35462: recorded pKi for assorted molecules
Sequence (P35462 whole entry): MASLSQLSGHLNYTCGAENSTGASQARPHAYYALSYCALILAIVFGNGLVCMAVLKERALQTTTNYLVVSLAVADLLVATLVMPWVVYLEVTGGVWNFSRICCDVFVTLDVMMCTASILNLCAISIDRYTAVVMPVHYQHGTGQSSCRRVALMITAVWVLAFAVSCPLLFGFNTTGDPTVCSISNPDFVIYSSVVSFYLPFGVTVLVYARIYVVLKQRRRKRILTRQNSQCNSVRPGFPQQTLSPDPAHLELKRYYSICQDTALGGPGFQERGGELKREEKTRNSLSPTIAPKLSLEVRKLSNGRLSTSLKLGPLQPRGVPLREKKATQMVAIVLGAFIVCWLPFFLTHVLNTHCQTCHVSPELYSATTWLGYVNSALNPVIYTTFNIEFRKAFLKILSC
pKi: −log10 of the molar value.
Endpoint label: pKi

CC(=O)N[C@H]1CC[C@H](CCN2CCN(c3noc4c(F)cc(F)cc34)CC2)CC1 : 8.43
COCCC(=O)N[C@H]1CC[C@H](CCN2CCN(c3noc4c(F)cc(F)cc34)CC2)CC1 : 8.44
O=C(CO)N[C@H]1CC[C@H](CCN2CCN(c3noc4c(F)cc(F)cc34)CC2)CC1 : 8.41
O=C(CC1CC1)N[C@H]1CC[C@H](CCN2CCN(c3noc4c(F)cc(F)cc34)CC2)CC1 : 8.57

[P] CCC(=O)N[C@H]1CC[C@H](CCN2CCN(c3noc4c(F)cc(F)cc34)CC2)CC1
[Q] O=C(N[C@H]1CC[C@H](CCN2CCN(c3noc4c(F)cc(F)cc34)CC2)CC1)C1CCOCC1
Field: entry with larger pKi (options P / Q ). Selection: enter the item's label.
P
